tested on: Giant Foxtail; assay: post-emergence herbicide test; format: in vivo; details: Setaria faberi, post-emergence, 0.25 lb/A; read-out: % plant inhibition
Parameter: inhibition at 280.212 g/ha (%)
Kindly answer with a numeric value in %, unit omitted.

IN: // returns reported inhibition at 280.212 g/ha for input Cc1c(-c2cc(C(=O)OCSC#N)c(Cl)cc2F)nn(C)c1C(F)(F)F
OUT: 0

IN: // returns reported inhibition at 280.212 g/ha for input CCCOC(=O)c1cc(-c2nn(C)c(C(F)(F)F)c2C)c(F)cc1Cl
OUT: 65

IN: // returns reported inhibition at 280.212 g/ha for input Cc1cc(-c2nn(C)c(C(F)(F)F)c2C)c(O)cc1Cl
OUT: 0

IN: // returns reported inhibition at 280.212 g/ha for input CC(C)OC(=O)c1cc(-c2nn(C)c(C(F)(F)F)c2C=O)c(F)cc1Cl
OUT: 35

IN: // returns reported inhibition at 280.212 g/ha for input Cc1c(-c2cc(C(=O)OCC(=O)c3ccccc3)c(Cl)cc2F)nn(C)c1C(F)(F)F
OUT: 0

IN: // returns reported inhibition at 280.212 g/ha for input CCOC(=O)CCCOC(=O)c1cc(-c2nn(C)c(C(F)(F)F)c2C)c(F)cc1Cl
OUT: 15

Origin of values: patent US5672715A
